Assay: Phase 1a multiple ascending dose study (oral solution): plasma pharmacokinetics
Format: in vivo, human
Conditions: human, plasma, oral, 120 mg, Cohort 4, 120 mg; Day 1; Hour 0.5; read-out: Compound 1 concentration, Conc (SD)
Description: Compound 1 was administered as the HCl-salt (prepared analogously to Example 2.1). The secondary objective was to characterize the multiple dose pharmacokinetic (PK) parameters of Compound 1, after ascending doses. Secondary endpoints included determination of PK parameters in plasma and urine, fecal excretion and assessment of colonic biopsy samples. […]
endpoint-name: concentration at 0.5 h (ng/mL)

                                item_smiles           endpoint_name  display_unit  value_reported
0  CC(C)(C)OC(=O)N1CCN(Cc2ccn(Cc3ccc(Cl)cc3)c(=O)c2O)CC1  concentration at 0.5 h         ng/mL            11.9

---

assay: Phase 1a multiple ascending dose study (oral solution): plasma pharmacokinetics; format: in vivo, human; details: human, plasma, oral, 240 mg, Cohort 3, 240 mg; Day 1; read-out: AUC(0-τ), mean (SD)
endpoint-name: AUC

>>> print(df.to_string())
                                item_smiles  value_reported
0  CC(C)(C)OC(=O)N1CCN(Cc2ccn(Cc3ccc(Cl)cc3)c(=O)c2O)CC1    91.5 ng·h/mL

---

assay: Phase 1a multiple ascending dose study (oral solution): plasma pharmacokinetics; type: in vivo, human; details: human, plasma, oral, 240 mg, Cohort 3, 240 mg; Day 1; Hour 6; read-out: Compound 1 concentration, Conc (SD)
endpoint-name: concentration at 6 h (ng/mL)

>>> df
                                item_smiles         endpoint_name  value_reported
0  CC(C)(C)OC(=O)N1CCN(Cc2ccn(Cc3ccc(Cl)cc3)c(=O)c2O)CC1  concentration at 6 h            3.39

---

assay: Phase 1a multiple ascending dose study (oral solution): plasma pharmacokinetics; type: in vivo, human; details: human, plasma, oral, 240 mg, Cohort 3, 240 mg once daily; Day 7; Hour 0.5; read-out: Compound 1 concentration, Conc (SD)
endpoint-name: concentration at 0.5 h (ng/mL)

>>> df
                                   molecule  display_unit  value_reported
0  CC(C)(C)OC(=O)N1CCN(Cc2ccn(Cc3ccc(Cl)cc3)c(=O)c2O)CC1 [Compound 1]         ng/mL            28.5

---

assay: Phase 1a multiple ascending dose study (oral solution): plasma pharmacokinetics; type: in vivo, human; conditions: human, plasma, oral, 60 mg, Cohort 5, 60 mg; Day 1; Hour 1; read-out: Compound 1 concentration, Conc (SD)
endpoint-name: concentration at 1 h (ng/mL)

                                item_smiles  value_reported
0  CC(C)(C)OC(=O)N1CCN(Cc2ccn(Cc3ccc(Cl)cc3)c(=O)c2O)CC1            3.94

---

Assay: Phase 1a multiple ascending dose study (oral solution): plasma pharmacokinetics
Type: in vivo, human
Conditions: human, plasma, oral, 60 mg, Cohort 5, 60 mg once daily; Day 7; Hour 24; read-out: Compound 1 concentration, Conc (SD)
Procedure: Compound 1 was administered as the HCl-salt (prepared analogously to Example 2.1). The secondary objective was to characterize the multiple dose pharmacokinetic (PK) parameters of Compound 1, after ascending doses. Secondary endpoints included determination of PK parameters in plasma and urine, fecal excretion and assessment of colonic biopsy samples. […]
endpoint-name: concentration at 24 h (ng/mL)

In [3]: df
Out[3]:
                                item_smiles          endpoint_name  display_unit  value_reported
0  CC(C)(C)OC(=O)N1CCN(Cc2ccn(Cc3ccc(Cl)cc3)c(=O)c2O)CC1  concentration at 24 h         ng/mL            1.18
